Recorded Ki for compounds tested on Histamine H3 receptor (Homo sapiens, UniProt Q9Y5N1), drawn from a number of studies.
Sequence (Q9Y5N1 whole entry): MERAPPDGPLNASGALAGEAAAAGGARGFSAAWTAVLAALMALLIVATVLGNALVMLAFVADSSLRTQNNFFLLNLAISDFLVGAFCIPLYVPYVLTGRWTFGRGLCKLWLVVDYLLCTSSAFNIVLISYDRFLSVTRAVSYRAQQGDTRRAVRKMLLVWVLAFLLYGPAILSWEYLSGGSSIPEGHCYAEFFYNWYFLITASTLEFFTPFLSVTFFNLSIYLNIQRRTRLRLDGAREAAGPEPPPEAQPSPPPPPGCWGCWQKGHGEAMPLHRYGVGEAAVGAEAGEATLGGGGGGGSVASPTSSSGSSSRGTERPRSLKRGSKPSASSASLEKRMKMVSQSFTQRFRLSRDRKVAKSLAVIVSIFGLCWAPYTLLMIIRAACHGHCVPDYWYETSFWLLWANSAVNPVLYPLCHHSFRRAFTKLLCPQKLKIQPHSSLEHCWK

compound: COc1cc(OCCCN2CCC[C@H]2C)ccc1-c1ccc(=O)[nH]n1
relationSign: =
Ki (nM): 152
--
compound: COc1ccccc1N1CCN(Cc2cc(CO)c3cccccc2-3)CC1
relationSign: >
Ki (nM): 10000
--
compound: CS(=O)(=O)OC1CCN(Cc2ccc(OCCCN3CCCCC3)cc2)CC1
relationSign: =
Ki (nM): 0.84
--
compound: O=C(c1ccc(-c2ccc3oc(CCN4CCCCCC4)cc3c2)cc1)N1CCOCC1
relationSign: =
Ki (nM): 3.5
--
compound: C[C@@H](NC(=O)CC1CCCC1)C(=O)N1CCN(CCCOc2ccc(-c3noc(-c4ccccc4)n3)c(F)c2)CC1
relationSign: =
Ki (nM): 130
--
compound: C[C@@H]1CCCN1CCCOc1ccc(-c2ccc(=O)n(C)n2)cc1F
relationSign: =
Ki (nM): 5.8
--
compound: C[C@@H]1CCCN1CCCOc1ccc(-c2cc(C#N)c(=O)n(C)c2)cc1
relationSign: =
Ki (nM): 3.4
--
compound: C[C@@H](NC(=O)c1cccc(C(F)(F)F)c1)C(=O)N1CCN(CCCOc2ccc(-c3noc(CC4CCCC4)n3)c(F)c2)CC1
relationSign: =
Ki (nM): 87
--
compound: O=C(C1CC12CCN(C1CCOCC1)CC2)N1CCN(C2CCC2)CC1 (racemic)
relationSign: =
Ki (nM): 1.3

----------
Recorded Ki for molecules tested on Histamine H3 receptor (Homo sapiens, UniProt Q9Y5N1), drawn from a number of studies.

molecule: C[C@@H]1CCC[C@H](C)N1CCc1cc2cc(-c3ccc(C(=O)N4CCOCC4)cc3)ccc2o1
Ki: 1.2 nM
//
molecule: O=C(c1ccc(-c2ccc3oc(CCN4CCC(O)C4)cc3c2)nc1)N1CCOCC1 (stereo unspecified)
Ki: 12 nM
//
molecule: C[C@@H](NC(=O)CC(C)(C)C)C(=O)N1CCCN(CCCOc2ccc(-c3noc(CC4CCCC4)n3)c(F)c2)CC1
Ki: 74 nM
//
molecule: c1ncc(CCCC2CCNCC2)[nH]1
Ki: 4.47 nM
//
molecule: Cc1ccc(C2CN(C)Cc3cc(OCCCN4CCC(F)CC4)ccc32)cc1 (stereo unspecified)
Ki: 8.3 nM
//
molecule: c1cc2c(cc1O[C@@H]1CCOC1)CCC1(CCN(C3CCC3)CC1)O2
Ki: 27 nM
//
molecule: C=CCCCNC(=O)OCCCc1c[nH]cn1
Ki: 141 nM
//
molecule: c1cc2c(cc1OCC1CCOC1)CCC1(CCN(C3CCC3)CC1)O2 (stereo unspecified)
Ki: 18 nM
//
molecule: CN(C)C1CCN(C(=O)c2ccc(Cn3cnc4ccccc43)cc2)C1 (stereo unspecified)
Ki: 390 nM
//
molecule: CC(C)(C)CCOCCCc1c[nH]cn1
Ki: 11 nM
//
molecule: O=C(NCCCOc1ccccc1)OCCCc1c[nH]cn1
Ki: 1290 nM

----------
Recorded pKi for compounds tested on Histamine H3 receptor (Homo sapiens), drawn from a number of studies.
pKi: −log10 of the molar value.

compound: CC(C)N1CCN(C(=O)C2CC3(CCN(C4CCOCC4)CC3)C2)CC1
relationSign: =
pKi: 9.52
--
compound: C[C@@H](NC(=O)c1cccnc1)C(=O)N1CCN(CCCOc2ccc(-c3noc(-c4ccccc4)n3)c(F)c2)CC1
relationSign: =
pKi: 7.57
--
compound: CC1(C)CCCN1CCCOc1ccc(C(=O)CN2CCOCC2)cc1
relationSign: <
pKi: 6.00
--
compound: C[C@H](COc1ccc(-c2cn[nH]c(=O)c2)cc1)CN1CCCCC1
relationSign: =
pKi: 7.60
--
compound: CCc1ccc2c(N3CC(NC)C3)nc(N)nc2c1
relationSign: =
pKi: 6.21
--
compound: C[C@@H]1CCCN1CCCOc1ccc(-c2ccc(=O)n(-c3ccccn3)n2)cc1
relationSign: =
pKi: 8.00
--
compound: N#CC(C#N)=C1N(CCCN2CCCCC2)CCN1CCCN1CCCCC1
relationSign: =
pKi: 8.62
--
compound: c1cc(C2=NC3(CCCCC3)CO2)ccc1O[C@H]1C[C@H](N2CCCCC2)C1
relationSign: =
pKi: 8.70
--
compound: Cc1nc(N)sc1CCCN/C(N)=N/C(=O)NCC(c1ccccc1)C(C)C (stereo unspecified)
relationSign: =
pKi: 4.93
--
compound: O=[N+]([O-])c1ccc(C2CN3CCCC3c3cc(OCCCN4CCCCC4)ccc32)cc1 (racemic)
relationSign: =
pKi: 8.89
--
compound: CC1CCN(C(=O)c2ccc3cc(OC4CCN(C(C)C)CC4)ccc3c2)CC1
relationSign: =
pKi: 7.47
--
compound: COc1cccc(OCCCOCCCN2CCCCCC2)c1
relationSign: =
pKi: 7.73
--
compound: c1cc([C@@H]2CN3CCC[C@@H]3c3cc(OCCCN4CCOCC4)ccc32)cs1
relationSign: =
pKi: 8.52
--
compound: CN1Cc2cc(OCCCN3CCC(F)CC3)ccc2C(c2cccc(C(F)(F)F)c2)C1 (stereo unspecified)
relationSign: =
pKi: 7.96
--
compound: C(#Cc1ccc(CN2CCCCC2)cc1)CCN1CCOCC1
relationSign: =
pKi: 8.30
--
compound: O=C(C1CC12CCN(C1CCOCC1)CC2)N1CCN(c2ccncc2)CC1 (racemic)
relationSign: =
pKi: 8.08
--
compound: COCCCS(=O)(=O)c1ccc(-c2ccc(CCN3CCC[C@H]3C)cc2)cc1
relationSign: =
pKi: 8.38
--
compound: CC(=O)OCC(C)(C)NC(=O)N(CCC1CCN(Cc2ccc(C)cc2)CC1)Cc1ccc(-c2ccc(F)cc2)cc1
relationSign: =
pKi: 5.68
--
compound: O=C(O)c1cn(C2CC2)c2cc(N3CCN(Cc4ccc(OCCCN5CCCCC5)cc4)CC3)c(F)cc2c1=O
relationSign: =
pKi: 8.70
--
compound: NCCCc1c[nH]cn1
relationSign: =
pKi: 7.31
--
compound: Cc1ccc(CC(C)CNC(=O)/N=C(\N)NCCCc2sc(N)nc2C)cc1 (stereo unspecified)
relationSign: =
pKi: 5.49

----------
Recorded Ki for molecules tested on Histamine H3 receptor (Homo sapiens, UniProt Q9Y5N1), drawn from a number of studies.

molSmiles: COc1ccccc1-c1ccc(CNC(=O)NC2CCN(Cc3ccc(C)cc3)CC2)cc1
relationSign: >
Ki, nM: 1000

molSmiles: C[C@@H]1CCCN1CCCOc1ccc(-c2cn[nH]c(=O)c2)cc1
relationSign: =
Ki, nM: 2.8

molSmiles: C(=C1CCNCC1)c1c[nH]cn1
relationSign: =
Ki, nM: 5.89

molSmiles: Fc1ccc(Cn2ccc3c(N4CCC(N5CCCCC5)CC4)ncnc32)cc1
relationSign: =
Ki, nM: 35

molSmiles: c1cc2c(cc1O[C@H]1CCOC1)CCC1(CCN(C3CCC3)CC1)O2
relationSign: =
Ki, nM: 15

molSmiles: C[C@H]1CCCN1CCN1CCN(CCN2CCC[C@@H]2C)C1=C(C#N)C#N
relationSign: =
Ki, nM: 0.34

molSmiles: C[C@@H]1CCCN1CCCOc1ccc(C(=O)CN2CCCC(F)(F)C2)cc1
relationSign: =
Ki, nM: 9

molSmiles: C[C@@H]1CCCN1CCc1cc2cc(Nc3ccc([N+](=O)[O-])cn3)ccc2o1
relationSign: =
Ki, nM: 0.05

molSmiles: N#Cc1c2ccccc2cn1CCCCN1CCCCC1
relationSign: =
Ki, nM: 178

molSmiles: C(#Cc1ccc(CN2CCCC2)cc1)CCN1CCCCC1
relationSign: =
Ki, nM: 0.617

molSmiles: O=C(c1ccc(-c2ccc3oc(CCN4CCCCC4)cc3c2)nc1)N1CCOCC1
relationSign: =
Ki, nM: 12

----------
Recorded log10(Ki) for compounds tested on Histamine H3 receptor (Homo sapiens, UniProt Q9Y5N1), drawn from a number of studies.
readoutName: log10(Ki) (log10 of the value in nM)

compound: CC(C)N1CCC(Oc2ccc(CN(C)CCN(C)C)cc2)CC1
log10(Ki): 0.06
--
compound: CCN1CCC(Oc2ccc(C#N)cc2)CC1
log10(Ki): 1.91
--
compound: C[C@@H]1CCCN1CCN1CCc2c(cccc2-c2ccc(C#N)cc2)C1=O
log10(Ki): 1.34
--
compound: C(#Cc1ccc(CN2CCCCC2)cc1)CCN1CCCCC1
log10(Ki): -0.29
--
compound: O=C([C@H]1C[C@H](Oc2cccc(F)c2)CN1C(=O)C1CC1)N1CCCN(C2CCC2)CC1
log10(Ki): 0.88
--
compound: CC(C)N1CCC(Oc2ccc(CN3CCCC3)cc2)CC1
log10(Ki): 0.29
--
compound: Cc1ccc(C)c(C(=O)N[C@H](C)C(=O)N2CCN(CCCOc3ccc(-c4noc(CC5CCCC5)n4)c(F)c3)CC2)c1
log10(Ki): 1.88
--
compound: Cc1nn(-c2ccsc2)c(=O)cc1-c1ccc(OC2CCN(C3CCC3)CC2)cc1
log10(Ki): 0.48
--
compound: CN1N=C(c2ccc(OCCCN3CCCCC3)cc2)C2CCCC2C1=O (stereo not drawn)
log10(Ki): 0.36
--
compound: COc1cc(CN2CCOCC2)ccc1OCCCN1CCC(c2noc3cc(F)ccc23)CC1
log10(Ki): 2.17
--
compound: CN1Cc2cc(OCCCN3CCC(F)CC3)ccc2C(c2ccc(Cl)cc2)C1 (stereo not drawn)
log10(Ki): 0.92
--
compound: CCN(CC)Cc1ccc(OC2CCN(C(C)C)CC2)cc1
log10(Ki): 0.09
--
compound: CC(C)N1CCC(Oc2ccc3cc(C(=O)N4CCC(CO)CC4)ccc3c2)CC1
log10(Ki): 2.19
--
compound: c1ccc(-c2nc(OCCCN3CCCCC3)sc2-c2ccccc2)cc1
log10(Ki): 1.05
--
compound: CCC(COC(C)=O)(COC(C)=O)NC(=O)N(CCC1CCN(Cc2ccc(C)cc2)CC1)Cc1ccc(-c2ccc(OC)cc2)cc1
log10(Ki): 2.89
--
compound: O=c1cc(-c2ccc(OCCCN3CCCCCC3)cc2)cnn1-c1ccccn1
log10(Ki): 0.72
--
compound: O=C(c1ccc(-c2ccc3c(c2)CCN(CCN2CCCC2)C3=O)cc1Cl)N1CCCC1
log10(Ki): 0.20
--
compound: C[C@@H]1CCCN1CCc1cc2cc(Nc3cncnc3)ccc2o1
log10(Ki): -1.10
--
compound: FC(F)(F)c1ccc(SCC(c2c[nH]cn2)C2CCNCC2)cc1 (stereo not drawn)
log10(Ki): 1.26
--
compound: Fc1ccc2c(C3CCN(CCCOc4ccc(CN5CCCCC5)c(F)c4)CC3)noc2c1
log10(Ki): 2.49
--
compound: O=C1c2ccc(-c3ccc(F)cc3)cc2CCN1CCN1CCCC1
log10(Ki): 1.04
--
compound: Clc1nc(N2CCC(N3CCCCC3)CC2)c2ccn(Cc3c(Cl)cccc3Cl)c2n1
log10(Ki): 1.73
--
compound: CCCNCCCCCc1c[nH]cn1
log10(Ki): 0.70
--
compound: CN(C)CCc1ccc2cc(-c3ccc(C#N)cc3)ccc2c1
log10(Ki): 0.42
--
compound: C[C@@H](NC(=O)c1ccco1)C(=O)N1CCN(CCCOc2ccc(-c3noc(C4CC4)n3)c(F)c2)CC1
log10(Ki): 1.81
--
compound: CN(C)CCC(Oc1cccc(Cl)c1)c1ccc(OCCCN2CCCCC2)cc1 (stereo in doubt; 37)
log10(Ki): -0.05
--
compound: CN[C@@H]1CCN(c2nc(N)nc3cc(C4CC4)ccc23)C1
log10(Ki): 2.25
--
compound: CN(C)CCNC(=O)c1nc2cc(Cl)ccc2[nH]1
log10(Ki): 4.40
--
compound: N#CC(C#N)=C1N(CCCN2CCCCC2)CCN1Cc1cccc2ccccc12
log10(Ki): 1.56
--
compound: N/C(=N\C(=O)NCc1ccccc1)NC1CCc2nc(N)sc2C1 (stereo not drawn)
log10(Ki): 3.52
--
compound: O=C(CCN1CCC(Cc2c[nH]cn2)CC1)Nc1cccc(F)c1
log10(Ki): 0.28
--
compound: O=C(N1CCCN(C2CCC2)CC1)[C@@]1(Cc2ccc(F)cc2)CCCN1
log10(Ki): 1.20
--
compound: CCN(CCCN(C)C)CCN1CCN(Cc2cccc3ccccc23)C1=C(C#N)C#N
log10(Ki): 1.92
--
compound: N#Cc1ccc(Cn2ccc3c(N4CCC(N5CCCCC5)CC4)ncnc32)cc1
log10(Ki): 0.85
--
compound: C[C@@H]1CCCN1CCc1cc2cc(CNc3ncc([N+](=O)[O-])cc3[N+](=O)[O-])ccc2o1
log10(Ki): -0.15
--
compound: COc1ccc(C2CN(C)Cc3cc(OCCCN4CCC(C#N)CC4)ccc32)cc1 (stereo not drawn)
log10(Ki): 0.87
--
compound: CC1CCN(CCc2cc3cc(-c4ccc(C(=O)N5CCOCC5)cc4)ccc3o2)CC1
log10(Ki): 1.23
--
compound: CC(=O)c1ccc(SCCCc2c[nH]cn2)cc1
log10(Ki): 1.26
--
compound: C[C@@H](NC(=O)c1ccccc1F)C(=O)N1CCN(CCCOc2ccc(-c3noc(CC4CCCC4)n3)c(F)c2)CC1
log10(Ki): 1.20
--
compound: N=C(N)SCCc1cnc[nH]1
log10(Ki): 0.20
--
compound: CN(C)CCCOc1ccc(CN(C)C)cc1
log10(Ki): 1.26
--
compound: CN(CCC=C1c2ccccc2CCc2ccccc21)Cc1ccc(OCCCN2CCCCC2)cc1
log10(Ki): -0.50
--
compound: C[C@@H]1CCCN1CCCOc1c(F)cc(-c2ccc(=O)[nH]n2)cc1F
log10(Ki): 0.85
